biological target: T1, PD-L1-Fc (PD-L1 antigen protein, extracellular region Met1-Thr239 fused to human Fc) (human, UniProt Q9NZQ7 19-239); experiment: BLI (Octet); PD-1-coated biosensor dipped in a mix of PD-L1 antigen protein and antibody; KD from the Octet software
T1 construct: range 1-239; the secreted protein lacks it; also called PD-L1-Fc antigen; pCEP4-PDL1-Fc product; not shown: human Fc fragment of the pCEP4-Fc vector
T1 sequence (Q9NZQ7 19-239): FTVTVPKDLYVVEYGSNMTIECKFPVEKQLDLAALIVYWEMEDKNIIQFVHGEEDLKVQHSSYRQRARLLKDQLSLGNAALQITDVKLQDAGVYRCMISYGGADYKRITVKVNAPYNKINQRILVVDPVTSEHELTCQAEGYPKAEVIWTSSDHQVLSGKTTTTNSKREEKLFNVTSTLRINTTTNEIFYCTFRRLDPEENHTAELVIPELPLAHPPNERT
Recorded Kd, one value per entry.
Write the answer as a number in nM, unit excluded.

{"binder": "KL001-14 (antibody, V domains shown) VH: QVQLVESGAEVKKPGSSVKVSCKASGGTFSSYAISWVRQAPGQGLEWMGRIIPILGIANYAQKFQGRVTVTADKSTSTAYMELSSLRSEDTAVYYCARSGYGYAYQSFDYWGQGTLVTVSS VL: QLVLTQPPSVSGAPGQTVTISCTGPQIGAGYDVHWYQQLPGAAPKLLIYGNLNRPSGVPDRFSGSKSGTSASLAITDLQAEDEADYYCQSYDSRLGVVFGGGTKLTVL", "readout.name": "Kd", "observed": 0.0204}
{"binder": "KL001-10 (antibody, V domains shown) VH: QVQLVESGAEVKKPGSSVKVSCKASGGTFSSYAISWVRQAPGQGLEWMGRIIPILGIANYAQKFQGRVTVTADKSTSTAYMELSSLRSEDTAVYYCARSGYGYAYGSFDYWGQGTLVTVSS VL: QLVLTQPPSVSGAPGQTVTISCTGPTIGAGYDVHWYQQLPGAAPKLLIYGNLNRPSGVPDRFSGSKSGTSASLAITDLQAEDEADYYCQSYDQTLGVVFGGGTKLTVL", "readout.name": "Kd", "observed": 0.0201}

Below: the item to evaluate.
Request: # get_value(readout='Kd', item= KL001-17 (antibody, V domains shown) VH: QVQLVESGAEVKKPGSSVKVSCKASGGTFSSYAISWVRQAPGQGLEWMGRIIPILGIANYAQKFQGRVTVTADKSTSTAYMELSSLRSEDTAVYYCARSGYGYAYGSFDYWGQGTLVTVSS VL: QLVLTQPPSVSGAPGQTVTISCTGPVIGAGYDVHWYQQLPGAAPKLLIYGNLNRPSGVPDRFSGSKSGTSASLAITDLQAEDEADYYCQSYDSRLGVVFGGGTKLTVL )
Response: 0.0183
